The entries below are paired with their reported self-splicing fitness (ln).
# procedure-summary: self-splicing fitness, log relative to wild type (ln ratio); higher = more splicing; Tetrahymena group I intron in knt gene, E. coli kanamycin selection, DiMSum; sequences stand for … in CUCUCU…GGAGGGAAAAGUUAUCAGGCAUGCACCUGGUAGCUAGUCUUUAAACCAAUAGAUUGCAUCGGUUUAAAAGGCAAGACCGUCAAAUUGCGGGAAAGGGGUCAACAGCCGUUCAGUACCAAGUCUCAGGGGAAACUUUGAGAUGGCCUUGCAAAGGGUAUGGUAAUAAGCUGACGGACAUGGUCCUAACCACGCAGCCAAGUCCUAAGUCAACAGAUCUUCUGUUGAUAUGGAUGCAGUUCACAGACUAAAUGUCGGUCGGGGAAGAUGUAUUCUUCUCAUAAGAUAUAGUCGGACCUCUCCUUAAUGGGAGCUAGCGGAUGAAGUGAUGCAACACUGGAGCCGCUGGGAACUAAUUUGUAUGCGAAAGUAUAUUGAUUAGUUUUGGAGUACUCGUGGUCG;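 further: selection with 25 µg/mL kanamycin versus none on LB agar overnight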
# measurement-parameters: 37 °C
Just the number, please, no unit attached.

Incoming: Param item = GGCCAGCAAUAUUACGUGGG ; retrieve measured self-splicing fitness (ln).
Outgoing: -3.32

New cases:
Incoming: Query: self-splicing fitness (ln); subject: GAGGAGCAAUAUUACGCGUG
Outgoing: -0.66

Incoming: Quick one: self-splicing fitness (ln) for GACGAGCAAUAUUACGAAGG ?
Outgoing: -2.52

Incoming: Can you share its self-splicing fitness (ln)? I mean this sequence: UUACAGCAAUAUUACGAUCU
Outgoing: -1.02

Incoming: Would you mind telling me what self-splicing fitness (ln) value was observed for ACCCAGCAAUAUUACGGAAG ?
Outgoing: -1.02

---

# procedure-summary: self-splicing fitness, log relative to wild type (ln ratio); higher = more splicing; Tetrahymena group I intron in knt gene, E. coli kanamycin selection, DiMSum; sequences stand for … in CUCUCU…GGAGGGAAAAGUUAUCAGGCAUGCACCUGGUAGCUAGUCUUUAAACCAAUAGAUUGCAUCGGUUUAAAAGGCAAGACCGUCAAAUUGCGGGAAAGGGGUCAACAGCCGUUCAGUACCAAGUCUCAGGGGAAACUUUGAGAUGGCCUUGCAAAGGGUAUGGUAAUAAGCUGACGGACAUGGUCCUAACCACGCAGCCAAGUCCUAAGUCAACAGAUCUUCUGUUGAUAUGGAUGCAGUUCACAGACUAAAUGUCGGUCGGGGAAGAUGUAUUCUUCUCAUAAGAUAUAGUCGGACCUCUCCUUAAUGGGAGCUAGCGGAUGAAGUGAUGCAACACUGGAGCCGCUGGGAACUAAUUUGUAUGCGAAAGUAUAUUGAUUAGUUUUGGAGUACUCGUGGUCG
# measurement-parameters: 30 °C
# if value of self-splicing fitness (ln) reaches -2, tag 1; if it stays below, tag -1

Incoming: Does self-splicing fitness (ln) meet or surpass -2 for CACUAGCAAUAUUACGCUGU ?
Outgoing: -1

New cases:
Incoming: Tell me whether self-splicing fitness (ln) is at least -2 here: AAAUAGCAAUAUUACGCGAU
Outgoing: -1

Incoming: Hi, just wondering whether GGAUAGCAAUAUUACGUAUA shows self-splicing fitness (ln) of -2 or higher.
Outgoing: -1

Incoming: Dear colleague, could you confirm whether UCUCAGCAAUAUUACGACAC has self-splicing fitness (ln) at or above -2?
Outgoing: -1

---

self-splicing fitness (ln) for assorted sequences
# procedure-summary: self-splicing fitness, log relative to wild type (ln ratio); higher = more splicing; Tetrahymena group I intron in knt gene, E. coli kanamycin selection, DiMSum; sequences stand for … in CUCUCU…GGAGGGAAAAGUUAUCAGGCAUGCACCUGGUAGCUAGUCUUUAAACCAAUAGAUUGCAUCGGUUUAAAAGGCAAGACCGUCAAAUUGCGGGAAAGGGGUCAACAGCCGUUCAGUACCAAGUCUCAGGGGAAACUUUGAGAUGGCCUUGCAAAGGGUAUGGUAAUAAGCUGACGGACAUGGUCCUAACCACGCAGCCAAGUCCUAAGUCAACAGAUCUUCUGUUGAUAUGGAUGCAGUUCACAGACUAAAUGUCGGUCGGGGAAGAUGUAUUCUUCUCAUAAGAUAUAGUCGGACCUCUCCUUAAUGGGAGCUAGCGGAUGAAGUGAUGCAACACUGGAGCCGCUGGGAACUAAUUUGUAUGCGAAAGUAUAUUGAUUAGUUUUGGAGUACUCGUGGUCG
# measurement-parameters: 30 °C
Returns: the value as a bare number; no unit string appended.

Incoming: // self-splicing fitness (ln) lookup, key: GGCUAGCAAUAUUACGGGUC
Outgoing: -2.91

---
Incoming: Quick one: self-splicing fitness (ln) for ACCAAGCAAUAUUACGCCUA ?
Outgoing: -1.04

---

# procedure-summary: self-splicing fitness, log relative to wild type (ln ratio); higher = more splicing; Tetrahymena group I intron in knt gene, E. coli kanamycin selection, DiMSum; sequences stand for … in CUCUCU…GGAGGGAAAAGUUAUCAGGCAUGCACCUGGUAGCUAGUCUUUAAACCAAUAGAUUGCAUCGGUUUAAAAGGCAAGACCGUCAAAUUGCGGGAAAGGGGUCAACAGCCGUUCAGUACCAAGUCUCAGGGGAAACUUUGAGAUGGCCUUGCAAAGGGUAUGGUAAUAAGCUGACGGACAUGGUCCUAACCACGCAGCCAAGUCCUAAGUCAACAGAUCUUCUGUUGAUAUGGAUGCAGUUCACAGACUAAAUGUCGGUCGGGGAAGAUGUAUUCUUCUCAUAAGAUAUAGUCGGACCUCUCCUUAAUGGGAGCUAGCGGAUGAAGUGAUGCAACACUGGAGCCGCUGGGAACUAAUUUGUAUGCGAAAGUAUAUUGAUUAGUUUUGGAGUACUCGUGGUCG
# measurement-parameters: 30 °C
Rule: rule met for self-splicing fitness (ln) not less than -3, rule not met for anything less.

Solved cases below.
Incoming: Dear colleague, could you confirm whether GUACAGCAAUAUUACGAACG has self-splicing fitness (ln) at or above -3?
Outgoing: rule met

Incoming: I'd appreciate it if you could say whether CAUCAGCAAUAUUACGAACA has self-splicing fitness (ln) at least equal to -3.
Outgoing: rule met

Incoming: # check: self-splicing fitness (ln) of GGUGAGCAAUAUUACGUUGG is greater than or equal to -3
Outgoing: rule not met

Incoming: Say whether UCCCAGCAAUAUUACGUUGG shows self-splicing fitness (ln) of -3 or more.
Outgoing: rule not met

Now consider a different sequence.
Incoming: I'd appreciate it if you could say whether GCGCAGCAAUAUUACGGCUU has self-splicing fitness (ln) at least equal to -3.
Outgoing: rule met

---

# procedure-summary: self-splicing fitness, log relative to wild type (ln ratio); higher = more splicing; Tetrahymena group I intron in knt gene, E. coli kanamycin selection, DiMSum; sequences stand for … in CUCUCU…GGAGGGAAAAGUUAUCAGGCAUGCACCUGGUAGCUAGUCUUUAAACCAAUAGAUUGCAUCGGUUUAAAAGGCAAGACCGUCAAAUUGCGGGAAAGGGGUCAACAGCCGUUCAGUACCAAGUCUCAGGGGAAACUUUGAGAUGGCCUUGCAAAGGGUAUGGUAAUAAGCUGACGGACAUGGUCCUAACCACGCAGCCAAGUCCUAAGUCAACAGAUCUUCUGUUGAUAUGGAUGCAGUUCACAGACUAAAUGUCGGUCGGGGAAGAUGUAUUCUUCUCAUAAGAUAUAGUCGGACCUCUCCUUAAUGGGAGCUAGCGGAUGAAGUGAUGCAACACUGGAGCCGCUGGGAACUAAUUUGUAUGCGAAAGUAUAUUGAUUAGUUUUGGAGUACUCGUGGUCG
# measurement-parameters: 37 °C
recorded-endpoint: self-splicing fitness (ln)
API note: the answer field is a bare number with no unit suffix.

Incoming: Name the recorded self-splicing fitness (ln) for UUUAAGCAAUAUUACGUUUC .
Outgoing: -3.19

Incoming: Give the measured self-splicing fitness (ln) of CCACAGCAAUAUUACGAAAC .
Outgoing: -1.8

Incoming: What measured self-splicing fitness (ln) goes with CCUGAGCAAUAUUACGUUCG ?
Outgoing: -2.87

Incoming: For the sequence shown here, AGCGAGCAAUAUUACGCUCA , give the reported self-splicing fitness (ln).
Outgoing: -2.5

Incoming: State the recorded self-splicing fitness (ln) for this entry: UCCUAGCAAUAUUACGCCGG
Outgoing: -1.88

---

# procedure-summary: self-splicing fitness, log relative to wild type (ln ratio); higher = more splicing; Tetrahymena group I intron in knt gene, E. coli kanamycin selection, DiMSum; sequences stand for … in CUCUCU…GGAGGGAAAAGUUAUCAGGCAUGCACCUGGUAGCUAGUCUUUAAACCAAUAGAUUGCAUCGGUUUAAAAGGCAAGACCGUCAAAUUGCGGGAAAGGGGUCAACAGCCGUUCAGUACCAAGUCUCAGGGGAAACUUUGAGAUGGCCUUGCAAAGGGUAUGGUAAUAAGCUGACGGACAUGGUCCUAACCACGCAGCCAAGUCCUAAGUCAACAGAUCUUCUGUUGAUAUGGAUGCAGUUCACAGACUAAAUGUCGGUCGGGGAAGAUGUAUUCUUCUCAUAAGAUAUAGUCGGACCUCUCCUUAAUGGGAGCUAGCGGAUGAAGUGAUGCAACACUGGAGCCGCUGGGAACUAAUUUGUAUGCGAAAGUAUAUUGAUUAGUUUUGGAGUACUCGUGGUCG
# measurement-parameters: 30 °C
# self-splicing fitness (ln) per record follows
Returns: the value as a bare number; no unit string appended.

Incoming: Quick one: self-splicing fitness (ln) of GUCAAGCAAUAUUACGAAUU ?
Outgoing: -3.06

Incoming: // returns reported self-splicing fitness (ln) for input CCUUAGCAAUAUUACGGGAA
Outgoing: -3.02

Now for the sequence whose self-splicing fitness (ln) we want.
Incoming: Form field: reported self-splicing fitness (ln) of CAACAGCAAUAUUACGAGCA
Outgoing: -2.97

# credit: the supplement of paper PMC7877785
